Would you mind telling me the reported TD50 of each entry?
# Test system: rodent lifetime carcinogenesis bioassay, tumor incidence TD50
# Method Notes: carcinogenic potency in animals, long-term in vivo studies, CPDB compilation (AID 1745844)
# Conditions: mouse; strain B6C3F1; females; by gavage; site: any site (literature study); lesion: several types; types named in the paper; dosed 102 weeks; study length 103 weeks
The source made the active and inactive calls. The rule behind the calls is not given here.

*Q* Tell me reported TD50 for CC1(C)COC1=O , tested with rodent lifetime carcinogenesis bioassay, tumor incidence TD50.
*A* 179 mg/kg/day (inactive)

*Q* Tell me reported TD50 for CC(C)=CCl , tested with rodent lifetime carcinogenesis bioassay, tumor incidence TD50.
*A* 14.6 mg/kg/day

###

# Test system: rodent lifetime carcinogenesis bioassay, tumor incidence TD50
# Method Notes: carcinogenic potency in animals, long-term in vivo studies, CPDB compilation (AID 1745844)
# Conditions: rat; strain F344/DuCrj; males; in drinking water; site: oral cavity; lesion: squamous-cell carcinoma; dosed 116 weeks; study length 116 weeks
Measured Parameter: TD50

*Q* // query TD50 value for entry N#[N+]c1cc(CCN)ccc1[O-]
*A* 37.6 mg/kg/day

###

Would you mind telling me the reported TD50 of each entry?
# Test system: rodent lifetime carcinogenesis bioassay, tumor incidence TD50
# Method Notes: carcinogenic potency in animals, long-term in vivo studies, CPDB compilation (AID 1745844)
# Conditions: mouse; strain C3HeB/FeJ; females; in feed; site: lung; lesion: adenoma; dosed 104 weeks; study length 104 weeks
The source made the active and inactive calls. The rule behind the calls is not given here.

*Q* // query TD50 value for entry CCN(Cc1cccc(S(=O)(=O)O)c1)c1ccc(C(=C2C=CC(=[N+](CC)Cc3cccc(S(=O)(=O)[O-])c3)C=C2)c2ccccc2)cc1
*A* 146000 mg/kg/day (inactive)

*Q* // query TD50 value for entry CCN(Cc1cccc(S(=O)(=O)O)c1)c1ccc(C(=C2C=CC(=[N+](CC)Cc3cccc(S(=O)(=O)O)c3)C=C2)c2ccc(O)cc2S(=O)(=O)[O-])cc1
*A* 133000 mg/kg/day (inactive)

###

# Tested on: rodent lifetime carcinogenesis bioassay, tumor incidence TD50
# Method Notes: carcinogenic potency in animals, long-term in vivo studies, CPDB compilation (AID 1745844)
# Conditions: rat; strain NZR/Gd; males; by gavage; site: heart; lesion: one or several types; types not named; dosed 52 weeks; study length 150 weeks
Measured Parameter: TD50 (mg/kg/day)
Please state the figure in mg/kg/day; there is no need to write the unit.

*Q* Tell me reported TD50 for O=NN1CCCCCCCCCCCC1 , tested with rodent lifetime carcinogenesis bioassay, tumor incidence TD50.
*A* 2.15

###

# System: rodent lifetime carcinogenesis bioassay, tumor incidence TD50
# Method Notes: carcinogenic potency in animals, long-term in vivo studies, CPDB compilation (AID 1745844)
# Conditions: mouse; strain B6C3F1; males; in feed; site: subcutaneous tissue; lesion: hemangiosarcoma; dosed 46 weeks; study length 46 weeks
Measured Parameter: TD50

*Q* // query TD50 value for entry Cc1ccc2c(c1[N+](=O)[O-])C(=O)c1ccccc1C2=O
*A* 1.34 mg/kg/day

###

# Tested on: rodent lifetime carcinogenesis bioassay, tumor incidence TD50
# Method Notes: carcinogenic potency in animals, long-term in vivo studies, CPDB compilation (AID 1745844)
# Conditions: mouse; strain D2B6F1 mice; males; in feed; site: liver; lesion: several types; types named in the paper; dosed 87 weeks; study length 87 weeks
Measured Parameter: TD50

*Q* // query TD50 value for entry ClC1=C(Cl)C2(Cl)C3C(Cl)C(Cl)CC3C1(Cl)C2(Cl)Cl (stereo unspecified)
*A* 3.83 mg/kg/day
